Provenance of the data: patent US20240360109A1

# MEASUREMENT DESCRIPTION: Pharmacokinetic assay of SD rats
# Type: in vivo
# ASSAY SETUP: Sprague-Dawley, rat, po; male SD rats, plasma, dose 50 mg/kg (b1219 prints 5 mg/kg)
Quick reference for half-life among some molecules

# SUBSTANCE SMILES, UNITS OF MEASURE, half-life
data = [
    ("[2H][C@]1(c2ccc(Cl)cc2F)C=C(F)c2cccc(C3CCN(Cc4nc5ccc(C(=O)O)nc5n4C[C@@H]4CCO4)CC3)c2O1", "h", 2),
    ("O=C(O)c1ccc2nc(CN3CCC(c4cccc5c4O[C@@H](c4ccc(Cl)cc4F)C=C5F)CC3)n(C[C@@H]3CCO3)c2n1", "h", 3.1),
    ("N#Cc1ccc([C@H]2C=Cc3cccc(C4CCN(Cc5nc6ccc(C(=O)O)cc6n5C[C@@H]5CCO5)CC4)c3O2)c(F)c1", "h", 1.6),
    ("O=C(O)c1ccc2nc(CN3CCC(c4cccc5c4O[C@@H](c4ccc(Cl)cc4F)C=C5)CC3)n(C[C@@H]3CCO3)c2n1", "h", 3.8),
    ("O=C(O)c1ccc2nc(CN3CCC(c4cccc5c4O[C@@H](c4ccc(Cl)cc4F)C=C5)CC3)n(C[C@@H]3CCO3)c2c1", "h", 2),
]

----------
# MEASUREMENT DESCRIPTION: Pharmacokinetic assay of SD rats
# Assay type: in vivo
# ASSAY SETUP: Sprague-Dawley, rat, po; male SD rats, plasma, dose 50 mg/kg (b1219 prints 5 mg/kg)
MEASUREMENT LABEL: AUC(0-inf)

# SUBSTANCE SMILES, READING
measured = [
    ("N#Cc1ccc([C@H]2C=Cc3cccc(C4CCN(Cc5nc6ccc(C(=O)O)cc6n5C[C@@H]5CCO5)CC4)c3O2)c(F)c1", "12600 ng·h/mL"),
    ("O=C(O)c1ccc2nc(CN3CCC(c4cccc5c4O[C@@H](c4ccc(Cl)cc4F)C=C5)CC3)n(C[C@@H]3CCO3)c2c1", "21600 ng·h/mL"),
    ("O=C(O)c1ccc2nc(CN3CCC(c4cccc5c4O[C@@H](c4ccc(Cl)cc4F)C=C5F)CC3)n(C[C@@H]3CCO3)c2n1", "35800 ng·h/mL"),
    ("O=C(O)c1ccc2nc(CN3CCC(c4cccc5c4O[C@@H](c4ccc(Cl)cc4F)C=C5)CC3)n(C[C@@H]3CCO3)c2n1", "19100 ng·h/mL"),
    ("[2H][C@]1(c2ccc(Cl)cc2F)C=C(F)c2cccc(C3CCN(Cc4nc5ccc(C(=O)O)nc5n4C[C@@H]4CCO4)CC3)c2O1", "10800 ng·h/mL"),
]

----------
Quick reference for pEC50 among some molecules
# TARGET DESC: human GLP-1 receptor (Homo sapiens)
# Sequence (P43220 24-463): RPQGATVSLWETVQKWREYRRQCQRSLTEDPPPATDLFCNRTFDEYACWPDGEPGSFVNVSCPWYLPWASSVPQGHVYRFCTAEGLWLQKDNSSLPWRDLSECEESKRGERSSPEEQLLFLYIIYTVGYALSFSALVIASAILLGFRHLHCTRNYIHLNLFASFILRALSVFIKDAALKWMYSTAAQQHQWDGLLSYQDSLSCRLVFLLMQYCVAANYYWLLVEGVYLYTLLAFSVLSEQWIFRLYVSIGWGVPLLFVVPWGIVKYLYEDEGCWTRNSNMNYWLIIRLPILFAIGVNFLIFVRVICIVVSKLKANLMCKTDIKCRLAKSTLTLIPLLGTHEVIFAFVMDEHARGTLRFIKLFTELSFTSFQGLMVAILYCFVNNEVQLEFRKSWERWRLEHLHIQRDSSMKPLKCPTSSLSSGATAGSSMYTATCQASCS
# MEASUREMENT DESCRIPTION: Stimulation of human GLP1 receptor stable transgenic cell line CHO-K1/GLP-1R/CRE-luc to produce cAMP (HTRF)
# ASSAY SETUP: cAMP production, CHO-K1/GLP-1R/CRE-luc cells, 30 minutes incubation, 0.5 mM IBMX
pEC50: −log10 of the molar value.

# MOLECULE, TARGET DESC, pEC50
records = [
    ("[2H][C@]1(c2ccc(Cl)cc2F)C=Cc2cccc(C3CCN(Cc4nc5ccc(C(=O)O)cc5n4C[C@@H]4CCO4)CC3)c2O1", "human GLP-1 receptor (Homo sapiens)", 10.10),
    ("[2H]C([2H])([2H])Oc1cc(Cl)ccc1[C@@]1([2H])C=Cc2cccc(C3CCN(Cc4nc5ccc(C(=O)O)nc5n4C[C@@H]4CCO4)CC3)c2O1", "human GLP-1 receptor (Homo sapiens)", 10.30),
    ("O=C(O)c1ccc2nc(CN3CCC(c4cccc5c4O[C@@H](c4ccc(Cl)cc4F)C=C5F)CC3)n(C[C@@H]3CCO3)c2n1", "human GLP-1 receptor (Homo sapiens)", 10.15),
    ("O=C(O)c1ccc2nc(CN3CCC(c4cccc5c4O[C@@H](c4ccc(Cl)cc4F)C=C5)CC3)n(C[C@@H]3CCO3)c2n1", "human GLP-1 receptor (Homo sapiens)", 10.52),
    ("N#Cc1ccc([C@H]2C=Cc3cccc(C4CCN(Cc5nc6ccc(C(=O)O)cc6n5C[C@@H]5CCO5)CC4)c3O2)c(F)c1", "human GLP-1 receptor (Homo sapiens)", 10.30),
    ("[2H][C@]1(c2ccc(Cl)cc2F)C=C(F)c2cccc(C3CCN(Cc4nc5ccc(C(=O)O)nc5n4C[C@@H]4CCO4)CC3)c2O1", "human GLP-1 receptor (Homo sapiens)", 10.00),
    ("O=C(O)c1ccc2nc(CN3CCC(c4cccc5c4OC(c4ccc(Cl)cc4F)C=C5F)CC3)n(CC3(CF)CC3)c2c1 (centres unmarked)", "human GLP-1 receptor (Homo sapiens)", 10.22),
    ("[2H]C([2H])([2H])Oc1cc(Cl)ccc1[C@H]1C=C(F)c2cccc(C3CCN(Cc4nc5ccc(C(=O)O)nc5n4C[C@@H]4CCO4)CC3)c2O1", "human GLP-1 receptor (Homo sapiens)", 10.15),
]
